Where these numbers come from: PubChem BioAssay (NCI)

# System: HOP-62 NSCLC
# Assay name: NCI-60 one-dose screen, 48 h (100 = growth as untreated, 0 = no growth, -100 = all killed)
# Settings: 10 µM unless noted
This is part of a sample that, as a whole, favours compounds with a hit. Of some 83,000 tested, about 20% had one in any assay. The source made the active and inactive calls. Rule for the calls: active = growth percent below 10; inactive = the rest.
List of growth values.

Problem: Please indicate growth recorded for CC1=CCC(OC(=O)C(C)(C)CCC(O)(C(=O)OC2(C(C)C)CCC3(C)OC3C2)C(C)C)(C(C)C)CC1 (stereo not given)
Solution: -66.7% (active)

Problem: Please indicate growth recorded for COc1ccc(-c2nsc3c2NC(=O)CC3c2cccc(OC)c2)cc1 (stereo not given)
Solution: 39.1% (inactive)

Problem: Please indicate growth recorded for COc1ccc(Cn2cc(Cn3c(=O)c(-c4nc5ccccc5[nH]4)cc4ccccc43)nn2)c(OC)c1OC
Solution: 9.29% (active)

Problem: Please indicate growth recorded for CN1CCN(Cc2ccc(C(=O)Nc3cncc(C#Cc4cnc(N)c5ccccc45)c3)cc2C(F)(F)F)CC1
Solution: -48.4% (active)

Problem: Please indicate growth recorded for O=C1C(Cl)=C(NCc2ccco2)C(=O)c2ccccc21
Solution: 37% (inactive)

Problem: Please indicate growth recorded for COc1cc2cc3c(=O)n4c(cc5cc(OC)ncc54)c(=O)n3c2cn1
Solution: 95.3% (inactive)

Problem: Please indicate growth recorded for COc1ccc(-c2c(-c3ccc(OC)c(O)c3)cnc3ncnn23)cc1
Solution: 111% (inactive)

Problem: Please indicate growth recorded for O=C(CCc1nnc2sc(-c3ccc(Cl)cc3Cl)nn12)c1nc2ncccc2[nH]1
Solution: 2.87% (active)

Problem: Please indicate growth recorded for CCN1C(=O)N(c2ccccc2)C2Nn3c(s/c(=C4\C(=O)N(C(C)C)c5ccccc54)c3=O)=NC21 (stereo not given)
Solution: 98.5% (inactive)

Problem: Please indicate growth recorded for CCOc1ccccc1CN1CCc2nc3cc(C(C)(C)C)[nH]n3c(=O)c2C1
Solution: 99.6% (inactive)

---

# Test system: PC-3 prostate
# Assay name: NCI-60 one-dose screen, 48 h (100 = growth as untreated, 0 = no growth, -100 = all killed)
# Settings: 10 µM unless noted
Compounds without any hit were thinned out: in the full panel of roughly 83,000, 20% have a hit. Activity calls are given as the source filed them. How the source made its calls: active means growth percent below 10; inactive means the rest.
List of growth values.

Compound | growth
CCOC(=O)c1sc(-c2ccc(OS(=O)(=O)c3ccccc3[N+](=O)[O-])c(C=O)c2)nc1C | 70% (inactive)
O=C1c2ccccc2C(=O)c2c1ccc1[nH]c(CCl)nc21 | 39.3% (inactive)
Cc1ccc(C2CC(c3ccc(Nc4nc(NCCO)nc(Nc5ccc(Cl)cc5)n4)cc3)=NN2c2cc(Cl)cc(Cl)c2)cc1 (configuration not stated) | 98.9% (inactive)
O=C1/C(=C\c2ccc[nH]2)c2ccccc2N1c1ccccc1 | 90.9% (inactive)
CNCCNc1nc2ccccc2c2c(=O)c3cccc(C)c3sc12 | 41.4% (inactive)
O=Cc1c(OCc2cnnn2CC(=O)Nc2ccc(Cl)cc2)ccc2ccccc12 | 105% (inactive)

Problem: Please indicate growth recorded for CC(C)C[C@H](C(=O)N[C@@H](C)C(N)=O)N1CC=CCN(O)S1(=O)=O
Solution: 100% [5 µM] (inactive)

Problem: Please indicate growth recorded for CCN1C(=O)N(CC)C2C1NC(=S)N2/N=C/C=C/c1ccccc1OC (configuration not stated)
Solution: 25.2% (inactive)

---

# Test system: T-47D breast
# Assay name: NCI-60 one-dose screen, 48 h (100 = growth as untreated, 0 = no growth, -100 = all killed)
# Settings: 10 µM unless noted
Compounds without any hit were thinned out: in the full panel of roughly 83,000, 20% have a hit. Active and inactive are the calls of the source. Rule for the calls: active = growth percent below 10; inactive = the rest.
Measured parameter: growth

Would you please look over these solved cases?
Compound | Endpoint result
CC[C@]1(O)C[C@@H]2CN(CCc3c([nH]c4ccccc34)[C@@](C(=O)OC)(c3cc4c(cc3OC)N(C)[C@H]3[C@@](O)(C(=O)OC)[C@H](OC(=O)CCCBr)[C@]5(CC)C=CCN6CC[C@]43[C@@H]65)C2)C1 | 74.2% (inactive)
O=C(Nc1ccc(Cl)cc1)c1cc2ccccc2cc1OP(=O)(O)O | 25.4% (inactive)

Problem: Please indicate growth recorded for FC(F)(F)c1cccc(Nc2nc3ccccc3nc2Nc2cccc(C(F)(F)F)c2)c1
Solution: -61.7% (active)

Problem: Please indicate growth recorded for O=c1c2cc(F)cc(Cl)c2sc2c(Cl)nc3ccccc3c12
Solution: 91.8% (inactive)

Problem: Please indicate growth recorded for CC1(O)COCCCCOc2c(CN)cccc2NC(=O)c2nc(cnc2N)-c2ccc(cc2)S(=O)(=O)C(C)(C)C1 (centres undefined)
Solution: -19.8% (active)

Problem: Please indicate growth recorded for COc1ccc2[nH]c(O)c(N=NC(=O)c3oc4ccccc4c3C)c2c1
Solution: -39.2% (active)

---

List of growth values.
# Tested on: SW-620 colon
# Assay name: NCI-60 one-dose screen, 48 h (100 = growth as untreated, 0 = no growth, -100 = all killed)
# Settings: 10 µM unless noted
The panel holds about 83,000 compounds, 20% with a hit somewhere; the sample as a whole holds those more often.
Output spec: scalar in %, unitless text.

Would you please look over these solved cases?
Compound | Endpoint result
Cn1c(/C=C(\C#N)c2cccc(C(F)(F)F)c2)nc2c(N3CCOCC3)nc(Cl)nc21 | -68.8
COCCN(C(=O)Cc1cccs1)C(C(=O)NCc1ccc(OC)cc1)c1ccc(C(C)C)cc1 (stereo not given) | 85.3
O=C(c1nc2ccccc2[nH]1)C1[C@@H](c2cccc(O)c2)C2CC3CCCCC3N2[C@@]12C(=O)Nc1cc(Cl)ccc12 (stereo not given in full) | 39.3

Problem: Please indicate growth recorded for COc1ccc(OC)c(NC(=O)/C(C#N)=C/c2ccco2)c1
Solution: 106

Problem: Please indicate growth recorded for COC(=O)/C(CCC=C(C)C)=C1\[C@@H](OC(C)=O)C[C@@]2(C)[C@H]1C[C@@H](O)[C@H]1[C@@]3(C)CC[C@H](NCCCNCCCCNCCCN)[C@@H](C)[C@@H]3CC[C@@]12C
Solution: 55.8

Problem: Please indicate growth recorded for CCCCc1c(CCC)c(=N)c2ccccc2n1C
Solution: 59

Problem: Please indicate growth recorded for CCOc1ccccc1CN1CCc2nc3cc(C(C)(C)C)[nH]n3c(=O)c2C1
Solution: 105

Problem: Please indicate growth recorded for O=c1oc2ccc(Br)cc2c(=O)n1-c1ccc(F)cc1F
Solution: 16.3

Problem: Please indicate growth recorded for O=C1c2cc(I)ccc2Oc2cc([N+](=O)[O-])ccc2N1c1ccc(Cl)cc1F
Solution: 82.5

Problem: Please indicate growth recorded for CCOC(=O)C1=C(C)N=c2s/c(=C\c3cc(Cl)ccc3O)c(=O)n2C1c1ccc(OC)cc1 (stereo not given)
Solution: 103

---

List of growth values.
# System: SF-539 CNS
# Assay name: NCI-60 one-dose screen, 48 h (100 = growth as untreated, 0 = no growth, -100 = all killed)
# Settings: 10 µM unless noted
The panel holds about 83,000 compounds, 20% with a hit somewhere; the sample as a whole holds those more often.
Output spec: scalar in %, unitless text.

Compound | Measure unit | growth
O=c1oc2ccc(I)cc2c(=O)n1-c1ccc(Cl)cc1F | % | 7.99
COc1ccc(CCN2C(=O)CCSC2=S)cc1OC | % | 89.7
OC(CNC1CCCCC1)Cn1c2ccc(I)cc2c2cc(I)ccc21 (stereo unspecified) | % | 77.5
COc1ccc(CSc2nnc(SCC(=O)Nc3ccc(Cl)cc3)s2)cc1 | % | 86.6
Cc1cccc(NC(=O)c2sc3nc4c(cc3c2N)CCCC4)c1C | % | -12.2

--- query ---
Problem: Please indicate growth recorded for CCOC(=O)c1cc2c(n1Cc1cccc(OC)c1)-c1oncc1CCC2
Solution: 2.09

---

# Tested on: MALME-3M melanoma
# Assay name: NCI-60 one-dose screen, 48 h
# Settings: 10 µM unless noted
Compounds without any hit were thinned out: in the full panel of roughly 83,000, 20% have a hit. The source made the active and inactive calls. How the source made its calls: active means growth percent below 10; inactive means the rest.
Lab note: assign the record to one of 1 (yes) for active, 0 (no) for inactive

These solved cases illustrate the format of a correct answer.
Compound | Class
Cc1c(-c2noc(-c3ccc([N+](=O)[O-])cc3)n2)no[n+]1[O-] | 0 (no)
O=C(Nc1ccc(Cl)cc1F)c1cc(F)ccc1O | 1 (yes)
CSc1nc2c(c(=O)n1C)N=C1c3ccccc3C(=O)C1C(c1ccccc1)N2 (stereo not given) | 0 (no)
COc1ccc(C2C3=C(COC3=O)N(CCO)c3cc4c(cc32)CCC4)cc1OC (stereo not given) | 0 (no)
Clc1ncccc1Nc1ccc2nnc(-c3ccncc3)n2n1 | 0 (no)
C=C(C)CCC(C)N1CCC(N2CCC(C(=O)NCCc3ccccc3)CC2)CC1 (stereo not given) | 0 (no)

Problem: Which outcome was entered for the compound CCn1c(Cc2ccccc2Nc2c(Cl)cccc2Cl)nnc1SCC(=O)NN1C(=O)/C(=C/c2cccc(OC)c2OC)SC1=S in this test?
Solution: 0 (no)

Problem: Which outcome was entered for the compound O=C(/C=C/c1ccc(Cl)cc1)c1ccc(Nc2nc(NCCO)nc(Nc3ccc(Cl)cc3)n2)cc1 in this test?
Solution: 0 (no)

Problem: Which outcome was entered for the compound CCn1c(SCC(=O)Nc2cc(C(F)(F)F)ccc2Cl)nc2ccccc2c1=O in this test?
Solution: 1 (yes)

Problem: Which outcome was entered for the compound N#C/C(=C\c1c(-c2ccccc2)[nH]c2ccccc12)C(=O)c1ccccc1 in this test?
Solution: 0 (no)
